system name: recombinant MS4A4A soluble polypeptide JS5
assay summary: ELISA, 0.4 ug/ml antibody
value type: OD450
// no unit string in output, number only

[[record]]
binder = "anti-MS4A4A antibody 4A-371 (antibody, V domains shown) VH: QVQLVQSGSELKKPGASVKVSCKASGYIFTSYGLSWVRQAPGQGLEWMGWINTYSGVPTYAQGFTGRFVFSLDTSVSTAYLQISSLKAEDTAVYYCARTLGDYWGQGTLVTVSS VL: DVVMTQSPLSLPVTLGQPASISCKSSQSLLYSDGKTYLSWFQQRPGQSPRRLIYLVSKLDSGVPDRFSGSGSGTDFTLKISRVEAEDVGVYYCWQGIDFHQTFGGGTKVEIK"
readout_number = 0.955

[[record]]
binder = "anti-MS4A4A antibody 4A-367 (antibody, V domains shown) VH: QVQLVQSGSELKKPGASVKVSCKASGYTFTSYGLSWIRQAPGQGLEWMGWINTYSGVPTYAQGFTGRFVFSLDTSVSTAYLQISSLKAEDTAVYYCARTMVDYWGQGTLVTVSS VL: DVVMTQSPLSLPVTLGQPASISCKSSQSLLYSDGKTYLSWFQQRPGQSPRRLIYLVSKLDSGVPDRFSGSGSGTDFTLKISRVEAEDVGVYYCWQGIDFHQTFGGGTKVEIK"
readout_number = 0.961


Which OD450 value is on record for anti-MS4A4A antibody 4A-374 (antibody, V domains shown) VH: QVQLVQSGSELKKPGASVKVSCKASGYIFTSYGLSWVRQAPGQGLEWMGWINTYSGVPTYAQGFAGRFVFSLDTSVSTAYLQISSLKAEDTAVYYCARTLVDYWGQGTLVTVSS VL: DVVMTQSPLSLPVTLGQPASISCKSSRSLLYSDGKTYLSWFQQRPGQSPRRLIYLVSKLDSGVPDRFSGSGSGTDFTLKISRVEAEDVGVYYCWQGIDFHQTFGGGTKVEIK ?
0.833

Repeat with anti-MS4A4A antibody 4A-370 (antibody, V domains shown) VH: QVQLVQSGSELKKPGASVKVSCKASGYIFTSYGLSWVRQAPGQGLEWMGWINTYSGVPTYAQGFTGRFVFSLDTSVSTAYLQISSLKAEDTAVYYCARTLGDYWGQGTLVTVSS VL: DVVMTQSPLSLPVTLGQPASISCKSGQSLLYSDGKTYLSWFQQRPGQSPRRLIYLVSRLDSGVPDRFSGSGSGTDFTLKISRVEAEDVGVYYCWQGIDFHQTFGGGTKVEIK
0.822

Also anti-MS4A4A antibody 4A-364 (antibody, V domains shown) VH: QVQLVQSGSELKKPGASVKVSCKASGYTFTSYGLSWIRQAPGQGLEWMGWINTYSGVPTYAQGFTGRFVFSLDTSVSTAYLQISSLKAEDTAVYYCARTMVDYWGQGTLVTVSS VL: DVVMTQSPLSLPVTLGQPASISCKASQSLLYSDGKTYLSWFQQRPGQSPRRLIYLVSKLDSGVPDRFSGSGSGADFTLKISRVEAEDVGVYYCWQGIDFHQTFGGGTKVEIK ?
0.959
